Every entry's value here was drawn from PubChem BioAssay (NCI).

# Test system: HOP-62 NSCLC
# assayName: NCI-60 one-dose screen, 48 h
# experimentalConditions: 10 µM
About 83,000 compounds went through this panel and 20% of them were active in at least one assay; those are over-represented in the sample as a whole. Calls of active or inactive are those of the source. How the source made its calls: active means growth percent below 10; inactive means the rest.
Classes used: active, inactive

# molecule, assignedLabel
data = [
    ("COc1cc2ccnc(C=O)c2cc1OC", "inactive"),
    ("CN(C)Cc1cccs1", "inactive"),
    ("O=C(C=P(c1ccccc1)(c1ccccc1)c1ccccc1)c1ccc(Br)cc1", "inactive"),
    ("CCNC(=S)NN", "inactive"),
    ("CCC(OC(=O)CC(C)C)c1ccccc1 (configuration not stated)", "inactive"),
    ("CC(=O)OC1Oc2ccccc2-c2oc(=O)c(-c3ccc(F)cc3)cc21 (configuration not stated)", "inactive"),
    ("CCCCCCCCCCCCc1ccc(C(=O)/C=C/C(=O)O)cc1", "inactive"),
    ("Cc1cc(C)c2c(Nc3ncnc4c3sc3nc(C)cc(C)c34)n[nH]c2n1", "inactive"),
    ("CCCCC(CC#N)(CCC)CCC", "inactive"),
    ("O=C1CC[C@@H](C(=O)N[C@H]2CSSC[C@@H](C(=O)NCCc3ccccc3)NC(=O)[C@H](Cc3ccccc3)NC(=O)[C@@H]3CCCN3C(=O)[C@@H]3CCCN3C2=O)N1", "inactive"),
    ("COc1ccc(-c2nc(-c3nc4ccc(OC)cc4[nH]3)c3ccccn23)cc1", "inactive"),
    ("O=C(NCCc1nccs1)c1cnc2c(S)cccc2c1", "inactive"),
    ("CC(=O)Nc1nc(C)c(C(=O)NNC=O)s1", "inactive"),
    ("Cc1ccc(-c2cc(C(=O)Nc3ccc(S(=O)(=O)N4CCCCC4)cc3)[nH]n2)c(O)c1", "inactive"),
    ("COCCNCC(O)Cn1c2ccc(Cl)cc2c2cc(Cl)ccc21 (configuration not stated)", "inactive"),
    ("CCc1ccc(Nc2cc(C)nc3nc(C)nn23)cc1", "inactive"),
    ("C=CCc1cc(Nc2c3ccc(Cl)cc3nc3ccc(OC)cc23)cc(CN(CC)CC)c1O", "active"),
    ("FC(F)(F)c1ccc(-c2nc(-c3nc4cc(Cl)c(Cl)cc4[nH]3)c3ccccn23)cc1", "inactive"),
    ("CCc1cc2n(n1)-c1ncc(C(=O)OC)cc1Oc1ccccc1-2", "inactive"),
    ("COc1ccc(C(=O)/C=C/c2cc(-c3ccc(OC)c(OC)c3)n[nH]2)cc1OC", "active"),
    ("COc1cc(N=C2C(=O)N(Cc3ccccc3)c3ccccc32)cc(OC)c1OC", "inactive"),
    ("O=C/C=C/c1ccc([N+](=O)[O-])cc1Cl", "inactive"),
    ("Cc1c(C(=O)N[C@H](CO)Cc2ccccc2)[nH]c2ccc(Cl)cc2c1=O", "inactive"),
    ("CCN(CCCNC(=O)Cc1cc(=O)oc2cc(N(C)C)ccc12)CCNc1ccnc2cc(Cl)ccc12", "inactive"),
    ("O=C1/C(=C/c2cccs2)CCC/C1=C\\c1cccs1", "inactive"),
    ("Cc1cc(C#Cc2ccccc2)ccc1-n1c(/C=C/c2cc(O)ccc2O)nc2ccccc2c1=O", "active"),
    ("Cc1nc2scc(-c3ccc(Cl)cc3)n2c(=O)c1CCN1CCOCC1", "inactive"),
    ("CC(=O)OCC(COC(C)=O)(COC(C)=O)COC(C)=O", "inactive"),
    ("COc1cc(C)c2sc3ccccc3c(=O)c2c1NCCN(C)C", "inactive"),
    ("COc1ccc(C(=O)/C=C/c2cc(-c3ccc4c(c3)OCO4)n[nH]2)cc1OC", "inactive"),
    ("COc1cc(C2C=C(c3ccc(Cl)cc3)N=C3SC(C)=CN32)cc(OC)c1OC (configuration not stated)", "inactive"),
    ("CCOC(=O)c1cc(-c2ccccc2)nc(N)n1", "inactive"),
]

---

# Test system: SW-620 colon
# assayName: NCI-60 one-dose screen, 48 h (100 = growth as untreated, 0 = no growth, -100 = all killed)
# experimentalConditions: 10 µM
# Method: Growth inhibition of the SW-620 human tumor cell line is measured as a screen for anti-cancer activity. Cells are grown in 96 well plates and exposed to the test compound for 48 hours. Compounds are tested at a single concentration, which is 10^-5 M for most compounds. The reported endpoint is percent growth (GI% or GIPRCNT), where numbers from 0 - 100% represent growth inhibition, and numbers from -100% - 0 represent cell death. For example, a value of 40 represents 60% growth inhibition. […]
Compounds without any hit were thinned out: in the full panel of roughly 83,000, 20% have a hit.
Would you mind sorting the entries by growth according to these classes? 0: < 30%; 1: ≥ 30% and < 80%; 2: ≥ 80%

# compound, assignedLabel
rows = [
    ("N=C(N)c1ccc(-c2ccc(-c3cccs3)s2)nc1", 0),
    ("CNCCCNCCCN1C(=O)c2ccc3c4c(ccc(c24)C1=O)C(=O)N(CCCNCc1ccccc1OC)C3=O", 0),
    ("Nc1c(C(=O)NC2CCCCC2)sc2nc3c(cc12)C(=O)CCC3", 2),
    ("NC(=O)c1ccc(Br)o1", 2),
    ("Cc1ccc(-n2nnc3c(sc4ccccc43)c2=O)cc1", 1),
    ("CCNC1(NC#N)CCCCC1", 2),
    ("Cc1cc(O)c(C2=NN(c3ccc(S(N)(=O)=O)cc3)C(c3ccc(N(C)C)cc3)C2)c(C)c1Cl (stereo not given)", 1),
    ("CCCCN(CCCC)c1ccc(C(=NC(C)CCCN(CC)CC)c2ccc(N(C)C)cc2)cc1 (stereo not given)", 0),
    ("COc1ccc(-c2nsc3c2NC(=O)CC3c2cccc(Cl)c2)cc1 (stereo not given)", 0),
]

---

# Tested on: NCI-H460 lung
# assayName: NCI-60 one-dose screen, 48 h
# experimentalConditions: 10 µM
About 83,000 compounds went through this panel and 20% of them were active in at least one assay; those are over-represented in the sample as a whole. Calls of active or inactive are those of the source. Rule for the calls: active = growth percent below 10; inactive = the rest.
Classes used: active, inactive

# compound, assignedLabel
data = [
    ("CCN(CC)c1ccc(/C=C/C2=[N+](C)c3ccccc3C2(C)C)c(C)c1", "active"),
    ("Cc1ccc(S(=O)(=O)N2CCc3ccccc3CC2)cc1", "inactive"),
    ("COc1cc(C(=O)n2nc(N)c3c(C)cc(C)nc32)cc(OC)c1OC", "inactive"),
    ("Fc1ccc(Nc2ccnc(N3CCN(c4ccnc5cc(Cl)ccc45)CC3)n2)cc1", "inactive"),
    ("CCOC(=O)c1c(C)n(-c2ccc(Cl)cc2)c2ccc(OC(=O)/C=C/c3ccccc3)cc12", "inactive"),
    ("FC(F)(F)c1ccc(-c2nc(-c3nc4cc(Cl)c(Cl)cc4[nH]3)c3ccccn23)cc1", "inactive"),
    ("COc1cc(OC)cc(-c2ccc(-c3ccc(C(=N)N)cn3)o2)c1", "active"),
    ("O=C(O)c1cc(C(F)(F)F)cc(C(F)(F)F)c1", "inactive"),
    ("COc1cc(CSc2nc3ccc(C)cc3c(=O)n2Cc2ccccc2)cc(OC)c1OC", "inactive"),
    ("O=C(NCc1cn(Cc2cccc(Oc3ccccc3)c2)nn1)c1cccnc1Nc1ccccc1", "inactive"),
    ("CCc1ccc(-c2nnc(COc3ccc(-c4nc5cc(Cl)c(Cl)cc5[nH]4)cc3OC)o2)cc1", "inactive"),
    ("C=CCOc1ccc2c(c1)CC=C1[C@@H]2CC[C@]2(C)C(=O)/C(=N/O)C[C@@H]12", "inactive"),
    ("COc1ccc(-n2nnc3c(sc4ccccc43)c2=O)cc1", "active"),
    ("C=CCn1ccc(=O)nc1SC", "inactive"),
    ("Cc1cc(Cl)ccc1Nc1nc(C(F)(F)F)ccc1C(=O)N/N=C/c1ccccc1Cl", "active"),
    ("CCCCOCCOCCOCc1cc2c(cc1Br)OCO2", "inactive"),
    ("CCOC(=O)C1=C(Nc2ccc(OC)cc2)C(N)=NC1=N", "inactive"),
    ("COc1cc(C2C=C(c3ccc(Cl)cc3)N=C3SC(C)=CN32)cc(OC)c1OC (stereo not drawn)", "inactive"),
    ("CC(=O)Nc1nc(C)c(C(=O)NNC=O)s1", "inactive"),
    ("CCOC(=O)c1sc(NC(=O)c2cc(OC)c(OC)c(OC)c2)nc1C", "inactive"),
    ("CCc1ccc(Nc2cc(C)nc3nc(C)nn23)cc1", "active"),
    ("COc1cc(-c2cc(-c3ccc(C)cc3)nc3nc(N)[nH]c(=O)c23)ccc1Oc1ccnc2cc(Cl)ccc12", "inactive"),
    ("COc1ccc(-c2nsc3c2NC(=O)CC3c2ccc(Cl)cc2)cc1 (stereo not drawn)", "inactive"),
]
